- Experiment summary: Therapeutic index determined by ratio of IC50 to EC50
- Applied conditions: read-out: Therapeutic index
Please go through the items and note down their selectivity ratio.
One number for each entry.

Hi! Can you tell me selectivity ratio for each of these compounds?
1. COc1c(C)c(O)c(/C(O)=C/C(=O)c2ccccc2)c(O)c1C=O
2. Cc1c(O)c(C)c2c(c1O)C(=O)C[C@@H](c1ccccc1)O2 [DEMETHOXYMATTEUCINOL]
3. Cc1c(O)c(C=O)c(O)c2c1O[C@H](c1ccccc1)CC2=O

A.
489
4.18
45.2

Q. Hello, please tell me recorded selectivity ratio for this one: COc1c(C)c(O)c(C=O)c2c1C(=O)C[C@@H](c1ccccc1)O2
A. 9.85
